Below: a set of entries, each annotated with reported pKd.
Assayed Target: T1, RSV F ectodomain stabilized in the postfusion conformation (F ΔFP), subtype B (Respiratory syncytial virus subtype B, UniProt P13843 26-109; P13843 147-524)
T1 construct: extracellular domain; trimer; also called Postfusion subtype B
Procedure Details: BLI, IgG on AHQ sensors, 100 nM antigen
In simple prose, pKd is minus the logarithm base ten of a concentration in moles per litre.

ADI-14539 (antibody, V domains shown, IgG; also called Antibody Number 99) VH: QVQLVESGGGVVQPGRSLRLSCAASGFAFRVYDIHWVRQAPGKGLEWVAVAWSDGRDEFYADSVKGRITISRDNSKNTVYLQMSSLRVADTAVYYCARDSGTLTGLPHDAFDVWGQGTTVTVSS VL: DIQLTQSPSTLSASVGDRVTITCRASQSITTRLAWYQQKLGKAPKLLVYKASTLEIGVPSRFSGRGSGTEFTLTISSLQPDDFATYYCHHYNSYSWTFGQGTKVDIK ... 8.24

Now look at this entry.
Sample ADI-14553 (antibody, V domains shown, IgG) VH: QVQLVQSGTEVKKPGSSVNVSCKAVGGKFTSYNINWVRQAPGQGLEWMGRIIPTLGITYFAQKFQGRLTINADRSTSTAYMDLSSLRSDDTAVYYCARSNPVARDFWSGYSDDSSYAMDVWGQGTTVTVSS VL: ETTLTQSPGTLSLSPGDRVSLSCRASQTVDKNYVAWYQQKPGQAPRLLIYGASKRAADIPDRFSGSGSGADFTLTISRLEPEDFAVYHCQQYGASAFSFGGGTKLEIK — what was its pKd? 6.93
